- system: cis P-tau (Homo sapiens, UniProt P10636)
- Sequence (P10636 1-441 isoform P10636-8): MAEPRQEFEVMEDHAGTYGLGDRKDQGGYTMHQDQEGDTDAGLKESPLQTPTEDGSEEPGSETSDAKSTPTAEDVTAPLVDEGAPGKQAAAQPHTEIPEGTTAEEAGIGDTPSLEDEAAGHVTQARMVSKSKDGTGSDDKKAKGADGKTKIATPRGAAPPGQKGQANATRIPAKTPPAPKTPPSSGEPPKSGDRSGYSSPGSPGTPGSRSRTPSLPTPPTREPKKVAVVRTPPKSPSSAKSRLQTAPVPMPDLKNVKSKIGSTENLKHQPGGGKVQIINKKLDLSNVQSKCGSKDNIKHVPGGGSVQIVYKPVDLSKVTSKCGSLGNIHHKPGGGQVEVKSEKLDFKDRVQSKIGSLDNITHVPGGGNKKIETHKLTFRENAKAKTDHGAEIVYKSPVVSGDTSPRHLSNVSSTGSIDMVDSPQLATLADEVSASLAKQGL
- measurementProtocol: Elimination of cis P-tau in cultured neurons stressed by hypoxia
- Type: cell-based
- Design: endogenous in cells
- conditionInfo: 2.5 μg/ml, 5 μg/ml and 10 μg/ml
measurementName: elimination of cis P-tau in neurons under hypoxic conditions (images)

molecule | result
HT8: humanized cis-pThr231-tau mAb; heavy chain variable domain SEQ ID NO: 28, light chain variable domain SEQ ID NO: 18 (antibody, V domains shown) VH: QVQLVQSGAEVKKPGASVKVSCKASGYTFTSYWIHWVRQRPGQGLEWIGVIDPSDSYTRYNQKFKGRVTITRDTSASTAYMELSSLRSEDTAVYYCTTWEVDYWGQGTLVTVSS VL: DVVMTQSPLSLPVTLGQPASISCRSSQSLVHSDGNTYLHWYLQKPGQSPQLLIYKVSNRDSGVPDRFSGSGSGTDFTLKISRVEAEDVGVYFCSQSTHVPWTFGGGTKVEIK | elimination of cis P-tau
HT18: humanized cis-pThr231-tau mAb; heavy chain variable domain SEQ ID NO: 29, light chain variable domain SEQ ID NO: 20 (antibody, V domains shown) VH: QVQLVQSGAEVKKPGSSVKVSCKASGYTFTSYWIHWVRQAPGQGLEWMGVIDPSDSYTRYNQKFKGRVTITRDTSMSTAYTELSSLRSEDTAVYYCTTWEVDYWGQGTLVTVSS VL: DIQMTQSPSTLSASVGDRVTITCRSSQSLVHSDGNTYLHWYQQKPGKAPKLLIYKVSNRFSGVPSRFSGSGSGTEFTLTISSLQPDDFATYYCSQSTHVPWTFGQGTKLEIK | elimination of cis P-tau
HT1: humanized cis-pThr231-tau mAb; heavy chain variable domain SEQ ID NO: 25, light chain variable domain SEQ ID NO: 16 (antibody, V domains shown) VH: QVQLVQSGAELKKPGASVKMSCKASGYTFTSYWIHWVKQRPGQGLEWIGVIDPSDSYTRYNQKFKGRATLTVDTSASTAYMQLSSLTSEDSAVYYCTTWEVDYWGQGTTVTVSS VL: DVVMTQSPLSLPVTLGQPASISCRSSQSLVHSDGNTYLHWYLQKPGQSPQLLIYKVSNRFSGVPDRFSGSGSGTDFTLKISRVEAEDVGVYFCSQSTHVPWTFGGGTKVEIK | elimination of cis P-tau
HT2: humanized cis-pThr231-tau mAb; heavy chain variable domain SEQ ID NO: 26, light chain variable domain SEQ ID NO: 16 (antibody, V domains shown) VH: QVQLVQSGAEVKKPGASVKMSCKASGYTFTSYWIHWVKQRPGQGLEWIGVIDPSDSYTRYNQKFKGRATLTVDTSASTAYMELSSLRSEDTAVYYCTTWEVDYWGQGTLVTVSS VL: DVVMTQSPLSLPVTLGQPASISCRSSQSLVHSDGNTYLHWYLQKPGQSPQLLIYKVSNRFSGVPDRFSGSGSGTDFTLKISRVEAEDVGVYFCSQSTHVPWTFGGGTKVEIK | elimination of cis P-tau
C113: previously described murine cis-pTau monoclonal antibody (U.S. Pat. No. 9,688,747); SEQ ID NO: 24 and 15; positive control (antibody, V domains shown, previously described murine cis-pTau monoclonal antibody (U.S. Pat. No. 9,688,747); positive control) VH: QVQLQQPGAELVKPGASVKMSCKASGYTFTSYWIHWVKQRPGQGLEWIGVIDPSDSYTRYNQKFKGKATLTVDTSSSTAYMQLSSLTSEDSAVYYCTTWEVDYWGQGTTLTVSS VL: DVVMTQTPLSLPVSLGDQASISCRSSQSLVHSDGNTYLHWYLQKPGQSPKLLIYKVSNRFSGVPDRFSGSGSGTDFTLKISRLEAEDLGVYFCSQSTHVPWTFGGGTKLEIK | elimination of cis P-tau

The measured elimination of cis P-tau in neurons under hypoxic conditions (images) associated with HT3: humanized cis-pThr231-tau mAb; heavy chain variable domain SEQ ID NO: 27, light chain variable domain SEQ ID NO: 16 (antibody, V domains shown) VH: QVQLVQSGAEVKKPGASVKVSCKASGYTFTSYWIHWVRQRPGQGLEWIGVIDPSDSYTRYNQKFKGRVTLTVDTSASTAYMELSSLRSEDTAVYYCTTWEVDYWGQGTLVTVSS VL: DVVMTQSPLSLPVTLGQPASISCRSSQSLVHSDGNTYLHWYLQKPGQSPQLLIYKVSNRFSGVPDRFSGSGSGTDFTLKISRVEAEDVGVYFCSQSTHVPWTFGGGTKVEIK reads elimination of cis P-tau
